Assay: Lipophilicity, log D of the compound at pH 7.4 by HPLC analysis
Assay type: physicochemical
Conditions: buffer
Metric Name: logD
Answers are plain numbers.

These solved cases illustrate the format of a correct answer.
Cc1ccc(-n2nccn2)c(C(=O)N2CCCO[C@H]2Cn2ncn(-c3ccc(F)cn3)c2=O)c1 : 2.52
O=C(c1ccccc1-n1nccn1)N1CCCO[C@H]1Cn1ccc(-c2ccc(F)cn2)n1 : 2.3
Cc1ccc(-n2nccn2)c(C(=O)N2CCCC[C@@H]2Cn2ccc(-c3ccc(F)cn3)n2)c1 : 2.95
Cc1ccc(-n2nccn2)c(C(=O)N2CCCO[C@H]2Cc2cnn(-c3ccc(F)cn3)c2)c1 : 3.03
Cc1ccc(-n2nccn2)c(C(=O)N2CCCO[C@H]2Cn2ncc(-c3ccc(F)cn3)n2)c1 : 2.8

Batch request: logD per item, same order as input.
1. Cc1ccc(-n2nccn2)c(C(=O)N2COC[C@H]2Cn2ccc(-c3ccc(F)cn3)n2)c1
2. Cc1ccc(-n2nccn2)c(C(=O)N2CCCO[C@H]2Cn2cc(-c3ccc(F)cn3)cn2)c1

Response line:
1: 2.52; 2: 2.38

get_value(item= Cc1ccc(-n2nccn2)c(C(=O)N2CCCO[C@H]2Cn2ccc(-c3ccc(F)cn3)n2)c1 , readout=logD) returns 2.58
